B1: TPR 5TU (parent)
chain: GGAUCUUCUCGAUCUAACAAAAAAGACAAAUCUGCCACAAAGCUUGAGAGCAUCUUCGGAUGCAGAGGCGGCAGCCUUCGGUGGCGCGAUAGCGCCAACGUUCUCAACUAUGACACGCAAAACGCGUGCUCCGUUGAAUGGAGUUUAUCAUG

variants of: B1; assay: polymerase ribozyme fitness, log enrichment relative to wild type (log ratio); higher = more active; in vitro selection for triplet polymerase activity
This sample holds only a part of the variants without activity.
Outcome label depends on polymerase ribozyme fitness (log ratio) relative to -2: at/above gives fulfilled, below gives not fulfilled.

>>> class("G59C U61A")
"fulfilled"

Ask: Identify whether the reported polymerase ribozyme fitness (log ratio) of the following variant is -2 or greater: A24U C35A C87A A91C A150G
Result: not fulfilled

Ask: Quick check: does U45G C93A C95U have polymerase ribozyme fitness (log ratio) greater than or equal to -2?
Result: not fulfilled

Ask: Given the entry C76U C85U C99G , answer whether its polymerase ribozyme fitness (log ratio) meets or surpasses -2.
Result: fulfilled

Ask: polymerase ribozyme fitness (log ratio) >= -2 for A37C C93U G136C G141U ?
Result: not fulfilled

Ask: Decide: polymerase ribozyme fitness (log ratio) of A47C A60G C85A >= -2?
Result: not fulfilled

Ask: Say whether U31G A37U A41C C75U C76G C96U C105U G117U G133U U134C shows polymerase ribozyme fitness (log ratio) of -2 or more.
Result: not fulfilled

Ask: Exam item: decide whether the reported polymerase ribozyme fitness (log ratio) for `A150C` is at least -2.
Result: not fulfilled

Ask: Reported polymerase ribozyme fitness (log ratio) at or above -2? U56A C95U A98U
Result: fulfilled

Ask: Check if polymerase ribozyme fitness (log ratio) >= -2 (inclusive). Item: C18A A19C G50U C75U A110U
Result: not fulfilled

Ask: In plain terms: is recorded polymerase ribozyme fitness (log ratio) at least -2 for U53C C93G C99G C118A G126A U146G ?
Result: not fulfilled

Ask: Would you say C10G C76U shows polymerase ribozyme fitness (log ratio) at minimum -2?
Result: not fulfilled

Ask: Please check the record A49C G62U A107U G152A and state if its polymerase ribozyme fitness (log ratio) is at or above -2.
Result: not fulfilled

Ask: Could you verify whether the entry A20G C35G A49C A73G C87G shows polymerase ribozyme fitness (log ratio) of no less than -2?
Result: not fulfilled

Ask: Does the variant A73C C87G G141C have recorded polymerase ribozyme fitness (log ratio) that is -2 or more?
Result: not fulfilled

Ask: Has C14U C93U U127A C131A a recorded polymerase ribozyme fitness (log ratio) greater than or equal to -2?
Result: not fulfilled

Ask: Dear colleague, could you confirm whether A40G G117A has polymerase ribozyme fitness (log ratio) at or above -2?
Result: not fulfilled

Ask: Does the reported polymerase ribozyme fitness (log ratio) for A24C C27G G94A A106G C108U fall at or above the -2 mark?
Result: not fulfilled

Ask: Reported polymerase ribozyme fitness (log ratio) at or above -2? `C129G`
Result: not fulfilled

Ask: Decide: is the reported value of polymerase ribozyme fitness (log ratio) for G50C G68A A142U equal to or greater than -2?
Result: not fulfilled

Ask: Identify whether the reported polymerase ribozyme fitness (log ratio) of the following variant is -2 or greater: C87U C103G
Result: not fulfilled

Ask: Confirm if polymerase ribozyme fitness (log ratio) reported for the variant G48C A113C U148C is -2 or above.
Result: not fulfilled

Ask: Entry C38A U55A A106C G117A U146A : is its polymerase ribozyme fitness (log ratio) no less than -2?
Result: fulfilled
